Below are pIC50 values measured for ROCK2 (human) (UniProt O75116).
pIC50: −log10 of the molar value.
value-type: pIC50

| compound-structure | value-type | value-observed |
| --- | --- | --- |
| O=C(NCc1nc(-c2ccncc2)n[nH]1)c1ccc(CO)cc1 | pIC50 | ≥ 5.30 |
| O=C(Cc1ccccc1CO)NCc1nc(-c2c[nH]c3ncccc23)n[nH]1 | pIC50 | < 5.30 |
| CCCCCCCC(=O)NCc1nc(-c2ccncc2)n[nH]1 | pIC50 | < 5.30 |
| O=C(Cc1ccccc1)NCc1nc(-c2c[nH]c3ncccc23)n[nH]1 | pIC50 | < 5.30 |
| O=C(Cc1cccc(O)c1)NCc1nc(-c2ccncc2)n[nH]1 | pIC50 | < 5.30 |
| O=C(NCc1nc(-c2ccncc2)n[nH]1)c1cccc(O)c1 | pIC50 | < 5.30 |

---

pIC50: −log10 of the molar value.
These records show pIC50 for ROCK2 (human).

| compound-structure | pIC50 |
| --- | --- |
| O=C(NCc1nc(-c2ccncc2)n[nH]1)c1ccc(Br)cc1 | < 5.30 |
| O=C(CCc1nc(-c2ccncc2)n[nH]1)c1ccc(O)cc1 | ≥ 5.30 |
| COc1cc(C(=O)NCc2nc(-c3ccncc3)n[nH]2)cc(Cl)n1 | < 5.30 |
| CC(C)(C)OC(=O)NC[C@H](NC(=O)c1ccc(O)cc1O)c1nc(-c2ccncc2)n[nH]1 | ≥ 5.30 |
| O=C(C=Cc1ccccc1Cl)NCc1nc(-c2ccncc2)n[nH]1 | < 5.30 |

---

Form: system (ROCK2 (human)), quantity (IC50), values below.
value-type: IC50

| compound-structure | target-or-system | value-observed |
| --- | --- | --- |
| O=C(NCc1nc(-c2ccncc2)n[nH]1)c1cccc(Cl)c1O | ROCK2 (human) | ≤ 5 µM |
| CCCCOc1ccc(C(=O)NCc2nc(-c3c[nH]c4ncccc34)n[nH]2)cc1 | ROCK2 (human) | > 5 µM |
| CCCCc1ccc(C(=O)NCc2nc(-c3c[nH]c4ncccc34)n[nH]2)cc1 | ROCK2 (human) | > 5 µM |
| O=C(NCc1nc(-c2ccncc2)n[nH]1)C1=CCCC1 | ROCK2 (human) | > 5 µM |

---

# target-or-system: ROCK2 (human) (UniProt O75116)
# Sequence (O75116 whole entry, looked up): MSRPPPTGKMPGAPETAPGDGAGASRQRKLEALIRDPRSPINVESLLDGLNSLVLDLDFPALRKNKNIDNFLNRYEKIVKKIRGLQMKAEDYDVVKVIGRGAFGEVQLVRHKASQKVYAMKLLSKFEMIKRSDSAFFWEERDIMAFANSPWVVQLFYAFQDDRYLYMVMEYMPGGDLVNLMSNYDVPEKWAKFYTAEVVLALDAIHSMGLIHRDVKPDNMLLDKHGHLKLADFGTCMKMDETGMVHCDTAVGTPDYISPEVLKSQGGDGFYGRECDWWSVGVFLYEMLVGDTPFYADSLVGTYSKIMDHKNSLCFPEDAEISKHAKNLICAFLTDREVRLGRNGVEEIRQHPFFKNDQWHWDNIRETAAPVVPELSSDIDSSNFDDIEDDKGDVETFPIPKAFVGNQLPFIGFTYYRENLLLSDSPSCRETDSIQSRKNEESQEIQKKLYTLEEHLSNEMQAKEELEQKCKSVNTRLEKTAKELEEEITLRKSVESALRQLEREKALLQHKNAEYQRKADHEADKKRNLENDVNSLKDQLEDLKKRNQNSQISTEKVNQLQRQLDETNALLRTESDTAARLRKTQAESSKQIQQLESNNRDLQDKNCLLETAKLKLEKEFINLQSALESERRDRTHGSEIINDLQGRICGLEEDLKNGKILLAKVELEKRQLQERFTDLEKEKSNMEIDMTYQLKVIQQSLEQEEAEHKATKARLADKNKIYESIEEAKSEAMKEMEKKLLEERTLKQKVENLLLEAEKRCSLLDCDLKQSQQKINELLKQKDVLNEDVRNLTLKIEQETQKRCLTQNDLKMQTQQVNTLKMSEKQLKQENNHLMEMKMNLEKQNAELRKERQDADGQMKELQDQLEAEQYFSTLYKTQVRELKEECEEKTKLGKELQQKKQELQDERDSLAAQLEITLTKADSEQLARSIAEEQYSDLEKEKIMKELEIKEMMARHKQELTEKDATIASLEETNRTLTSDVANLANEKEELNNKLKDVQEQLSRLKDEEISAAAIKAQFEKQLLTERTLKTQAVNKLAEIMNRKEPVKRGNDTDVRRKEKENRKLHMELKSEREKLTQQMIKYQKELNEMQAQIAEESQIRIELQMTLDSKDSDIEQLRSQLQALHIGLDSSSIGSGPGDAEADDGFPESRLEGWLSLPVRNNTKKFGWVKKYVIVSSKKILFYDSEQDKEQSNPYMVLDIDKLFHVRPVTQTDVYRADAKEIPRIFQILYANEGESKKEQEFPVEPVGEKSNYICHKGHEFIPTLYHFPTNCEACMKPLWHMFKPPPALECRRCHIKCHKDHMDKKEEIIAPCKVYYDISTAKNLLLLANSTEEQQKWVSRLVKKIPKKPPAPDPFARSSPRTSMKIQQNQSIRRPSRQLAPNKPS
# procedure-summary: Inhibition of ROCK2 Kinase Activity
pIC50: −log10 of the molar value.
The following compounds are shown together with reported pIC50 values.

| compound | pIC50 |
| --- | --- |
| O=C(NCc1nc(-c2ccncc2)n[nH]1)c1cccc(Br)n1 | < 5.30 |
| O=C(NCc1nc(-c2ccncc2)n[nH]1)c1cc([N+](=O)[O-])ccc1Cl | < 5.30 |
| CC(=O)Oc1ccccc1C(=O)NCc1nc(-c2ccncc2)n[nH]1 | ≥ 5.30 |
| O=C(NCc1nc(-c2c[nH]c3ncccc23)n[nH]1)c1cscn1 | < 5.30 |
| O=C(NCc1nc(-c2ccncc2)c[nH]1)c1cccs1 | ≥ 5.30 |
| N#Cc1ccc(C(=O)NCc2nc(-c3ccncc3)n[nH]2)cc1 | < 5.30 |
| CC(C)(C)OC(=O)N1CCCC1C(=O)NCc1nc(-c2c[nH]c3ncccc23)n[nH]1 (stereo not given) | < 5.30 |
| O=C(NCc1nc(-c2ccncc2)n[nH]1)c1cc(Cl)ccc1[N+](=O)[O-] | < 5.30 |
| CC(C)(C)OC(=O)N1CCNC(C(=O)NCc2nc(-c3ccncc3)n[nH]2)C1 (stereo not given) | < 5.30 |
| O=C(NCc1nc(-c2c[nH]c3ncccc23)n[nH]1)C(O)CCl (stereo not given) | < 5.30 |

---

# target-or-system: ROCK2 (human) (UniProt O75116)
IC50 by entry:

| molecule | IC50 |
| --- | --- |
| CC(=O)Oc1ccccc1C(=O)NCc1nc(-c2c[nH]c3ncccc23)n[nH]1 | > 5 µM |
| CC(O)C(=O)NCc1nc(-c2c[nH]c3ncccc23)n[nH]1 (stereo not given) | > 5 µM |
| Cc1cccc(CCC(=O)NCc2nc(-c3ccncc3)n[nH]2)c1 | > 5 µM |
| O=C(NCc1nc(-c2ccncc2)n[nH]1)c1cccnc1 | > 5 µM |
| CC(C)C(NC(=O)OC(C)(C)C)C(=O)NCc1nc(-c2c[nH]c3ncccc23)n[nH]1 (stereo not given) | > 5 µM |
| O=C(NCc1nc(-c2c[nH]c3ncccc23)n[nH]1)c1ccc(O)cc1O | ≤ 5 µM |
| O=C(NCc1nc(-c2ccncc2)n[nH]1)c1cc(O)ccc1O | ≤ 5 µM |
| CC(C)(C)OC(=O)N1CC(O)CC1C(=O)NCc1nc(-c2ccncc2)n[nH]1 (stereo not given) | > 5 µM |
| COc1ccc(C(=O)NCc2nc(-c3c[nH]c4ncccc34)n[nH]2)c(OC)c1 | > 5 µM |
| COc1cc(C(=O)NCc2nc(-c3c[nH]c4ncccc34)n[nH]2)cc(OC)c1O | > 5 µM |

---

Parameter: pIC50. Scope: all listed entries.
# target-or-system: ROCK2 (human)
pIC50: −log10 of the molar value.
value-type: pIC50

| compound | target-or-system | value-type | value-observed |
| --- | --- | --- | --- |
| Cc1cccc(C(=O)NCc2nc(-c3ccncc3)n[nH]2)c1O | ROCK2 (human) | pIC50 | ≥ 5.30 |
| O=C(NCc1nc(-c2ccncc2)n[nH]1)C1CCc2ccccc21 (stereo unspecified) | ROCK2 (human) | pIC50 | < 5.30 |
| COc1ccc2cc(C(C)C(=O)NCc3nc(-c4ccncc4)n[nH]3)ccc2c1 (stereo unspecified) | ROCK2 (human) | pIC50 | < 5.30 |
| O=C(NCc1nc(-c2ccncc2)n[nH]1)c1cccc2c1OCC2 | ROCK2 (human) | pIC50 | < 5.30 |
| Cc1cc(C(=O)NCc2nc(-c3ccncc3)n[nH]2)ccc1O | ROCK2 (human) | pIC50 | ≥ 5.30 |
| Cc1nc(Br)sc1C(=O)NCc1nc(-c2ccncc2)n[nH]1 | ROCK2 (human) | pIC50 | < 5.30 |

---

# target-or-system: ROCK2 (human) (UniProt O75116)
# procedure-summary: Inhibition of ROCK2 Kinase Activity
pIC50: −log10 of the molar value.

| compound-structure | pIC50 |
| --- | --- |
| O=C(NCc1nc(-c2c[nH]c3ncccc23)n[nH]1)c1ccc(F)c(F)c1 | < 5.30 |
| O=C(NCc1nc(-c2c[nH]c3ncccc23)n[nH]1)c1c(O)ccc2ccccc12 | < 5.30 |
| COc1ccc(C(=O)NCc2nc(-c3ccncc3)n[nH]2)cc1O | < 5.30 |
| O=C(NCc1nc(-c2ccncc2)n[nH]1)c1ccc2ccccc2c1O | ≥ 5.30 |
| O=C(NCc1nc(-c2ccncc2)n[nH]1)c1ccc(C(F)(F)F)cc1[N+](=O)[O-] | < 5.30 |
| Clc1ccc(SCc2n[nH]c(-c3ccncc3)n2)cc1 | ≥ 5.30 |
| Cc1cccc([N+](=O)[O-])c1C(=O)NCc1nc(-c2ccncc2)n[nH]1 | < 5.30 |
| O=C(NCc1nc(-c2c[nH]c3ncccc23)n[nH]1)c1ccc(OCc2ccccc2)cc1 | < 5.30 |
| O=C(C=Cc1ccccc1F)NCc1nc(-c2ccncc2)n[nH]1 | < 5.30 |
| O=C(NCc1nc(-c2c[nH]c3ncccc23)n[nH]1)c1c(F)cccc1F | < 5.30 |

---

# target-or-system: ROCK2 (human) (UniProt O75116)
# procedure-summary: Inhibition of ROCK2 Kinase Activity
pIC50: −log10 of the molar value.
value-type: pIC50

| molecule | value-observed |
| --- | --- |
| CC(C)(C)OC(=O)NCC(=O)NCc1nc(-c2c[nH]c3ncccc23)n[nH]1 | < 5.30 |
| COc1cccc(C(=O)NCc2nc(-c3ccncc3)no2)c1 | < 5.30 |
| COc1ccc(C(=O)NCc2nc(-c3ccncc3)n[nH]2)c(OC)c1OC | < 5.30 |
| O=C(NCc1nc(-c2ccncc2)n[nH]1)c1ccncc1-c1ccccc1 | < 5.30 |
| O=C(NCc1nc(-c2ccncc2)n[nH]1)c1ccccc1Cl | < 5.30 |
| c1ccc2c(NCc3nc(-c4ccncc4)n[nH]3)n[nH]c2c1 | < 5.30 |
| Cc1ccc([N+](=O)[O-])c(C(=O)NCc2nc(-c3c[nH]c4ncccc34)n[nH]2)c1 | < 5.30 |
| O=C(Cc1ccc(O)c(Cl)c1)NCc1nc(-c2ccncc2)n[nH]1 | < 5.30 |
| O=C(NCc1nc(-c2c[nH]c3ncccc23)n[nH]1)c1cnc(O)c(Cl)c1 | < 5.30 |
| COc1cccc(C(=O)NCc2nc(-c3c[nH]c4ncccc34)n[nH]2)c1OC | < 5.30 |
| O=C(NCc1nc(-c2ccncc2)n[nH]1)c1ccccc1Cc1ccccc1 | < 5.30 |
| COc1ccc(C(=O)NCc2nc(-c3c[nH]c4ncccc34)n[nH]2)c(OC)c1OC | < 5.30 |
| Cc1ccc(F)cc1C(=O)NCc1nc(-c2c[nH]c3ncccc23)n[nH]1 | < 5.30 |
| CCCc1ccc(C(=O)NCc2nc(-c3ccncc3)n[nH]2)cc1 | < 5.30 |
| O=C(NCc1nc(-c2c[nH]c3ncccc23)n[nH]1)c1ccccc1C(=O)c1ccc(O)cc1 | < 5.30 |
| O=C(NCc1nc(-c2c[nH]c3ncccc23)n[nH]1)c1ccc2cc(O)ccc2c1 | < 5.30 |
| COc1ccc(Cl)cc1C(=O)NCc1nc(-c2c[nH]c3ncccc23)n[nH]1 | < 5.30 |
| O=C(C=Cc1ccccc1O)NCc1nc(-c2ccncc2)n[nH]1 | < 5.30 |
| CC(C)(C)c1ccc(C(=O)NCc2nc(-c3ccncc3)n[nH]2)cc1 | < 5.30 |
| O=C(NCc1nc(-c2ccncc2)n[nH]1)c1cccc(O)c1O | < 5.30 |
| CC(NC(=O)OC(C)(C)C)C(=O)NCc1nc(-c2ccncc2)n[nH]1 (configuration not stated) | < 5.30 |
| CS(=O)(=O)Nc1cccc(C(=O)NCc2nc(-c3c[nH]c4ncccc34)cs2)c1 | ≥ 5.30 |
| O=C(NCc1c[nH]c(-c2ccncc2)n1)c1cccs1 | < 5.30 |
| Cc1cc(C)c(C(=O)NCc2nc(-c3ccncc3)n[nH]2)c(C)c1 | < 5.30 |
| CC(C)C(=O)Oc1ccc(C(=O)NCc2nc(-c3ccncc3)n[nH]2)c(O)c1 | ≥ 5.30 |
| O=C(NCc1nc(-c2ccncc2)n[nH]1)c1cccc([N+](=O)[O-])c1 | < 5.30 |
| CC(=O)NC(Cc1ccc(O)cc1)C(=O)NCc1nc(-c2ccncc2)n[nH]1 (configuration not stated) | < 5.30 |
| CC(C)c1cccc(C(=O)NCc2nc(-c3ccncc3)n[nH]2)c1O | ≥ 5.30 |
| CC(C)(C)OC(=O)NC(Cc1ccccn1)C(=O)NCc1nc(-c2ccncc2)n[nH]1 (configuration not stated) | < 5.30 |
| CC(=O)NCc1nc(-c2c[nH]c3ncccc23)n[nH]1 | < 5.30 |
| O=C(NCc1nc(-c2ccncc2)n[nH]1)c1c(F)c(F)c(F)c(F)c1F | < 5.30 |
| O=C(Cc1ccc(C(F)(F)F)cc1)NCc1nc(-c2c[nH]c3ncccc23)n[nH]1 | < 5.30 |
| CC(C)CC(=O)NCc1nc(-c2c[nH]c3ncccc23)n[nH]1 | < 5.30 |
| O=C(C=Cc1cccc(O)c1)NCc1nc(-c2c[nH]c3ncccc23)n[nH]1 | < 5.30 |
| COc1ccc(C(=O)NCc2nc(-c3ccncc3)n[nH]2)cc1 | ≥ 5.30 |
| O=C(NCc1nc(-c2c[nH]c3ncccc23)n[nH]1)c1cc(O)ccc1O | < 5.30 |
| CS(=O)(=O)Nc1ccccc1C(=O)NCc1nc(-c2ccncc2)n[nH]1 | < 5.30 |
| O=C(O)c1ccc(C(=O)NCc2nc(-c3ccncc3)n[nH]2)cc1 | ≥ 5.30 |
| Cc1cccc(C(=O)NCc2nc(-c3ccncc3)n[nH]2)c1 | < 5.30 |
| O=C(NCc1nc(-c2ccncc2)n[nH]1)c1ccccc1O | ≥ 5.30 |
| CC(=O)c1ccc(C(=O)NCc2nc(-c3c[nH]c4ncccc34)n[nH]2)cc1 | ≥ 5.30 |
| COc1ccccc1C=CC(=O)NCc1nc(-c2c[nH]c3ncccc23)n[nH]1 | < 5.30 |
